experiment: yeast display, Sf9 membrane polyspecificity reagent, FACS + sequencing; frameworks hold sequencing errors
endpoint: polyreactivity (PSR sort gate)

QVQHVESVGGLVQAGGSLRLSCAASGFTFYGYAMGWYRHATGKERELVPAISQSGGSTTYADSVKGRFTISRDKAKNTVYVQMNSLKPEDTAVYYCAARYPYYWWRHVYGDVEYDFWGQGTQGTVSS | high polyreactivity
QVQLVESGGGLVQAGGSLRLSCAASGRTFNRYAMGWYRQAPGKERELVAAINSVGSTYYADSVKGRFTISRDNAKNTVYLQMNSLKPEDTAVYYCNAVQGSRFGYWGQGTQVTVSS | high polyreactivity

* * *

test: yeast display, Sf9 membrane polyspecificity reagent, FACS + sequencing; frameworks hold sequencing errors
endpoint: polyreactivity (PSR sort gate)

Examples with answers:
QVQLVESGGGLVQAGGSLRLSCAASGLIFYPYAMGWYRQAPGKERELVAGISSSGDSTYYADSVKGRFTISRDNAKNTVYLQMNSLKPEDNAVYYCNTGWDPYGYDYWGQGTQVTVSS | low polyreactivity
QVQLVESGGGLVQAGGSLRLSCAASGRTFVGYTMGWYRQAPGKERELVAAIDLSDGSTSYADSVKGRFTISRDNAKNTVYFQMNSLKPEDTAVYYCAKTWANVYAGAHDYWGQGTQVTVSS | low polyreactivity
QVQLVDSGAGLVQAGGSLRIICAASVRTFPRNAMGWYRQAPGKEMEMVAAITGSGGSTYYADSVKGRFTISRDNAKNTVYLQMNSLKPEDTAVYYCAARGPSRRRDGSDYWGQGTQVTVSS | high polyreactivity
QVQLVESGGGLVQAGGSLRFSCAASGSIFWYNAMGWYRQAPGKERELVARISSSGDSTYYADSVKGRFTISRDNAKNTVYLQMNSLKPEDTAVYYCNVDYWSISESSWGYYTSYDYWGQGTQVTVSS | high polyreactivity

Query: Which measured polyreactivity (PSR sort gate) value corresponds to QVQLVESVGGLVQAGGSLRLSCAASGSNFSVYVMGWYRQAPGKERELVADISRSGGSTYYADSVKGRFTISRDNAKNTVYLQMNSLKPEDTAVYYCAASLYLSWLFEYWGQGTQVTVSS ?
Reply: low polyreactivity
